System: ACHN renal
assay.explanation: NCI-60 one-dose screen, 48 h
assay.setup: 10 µM unless noted
About 83,000 compounds went through this panel and 20% of them were active in at least one assay; those are over-represented in the sample as a whole. The source made the active and inactive calls. The calls were made as follows: active = growth percent below 10; inactive = the rest.
Outcome codes: 1 (yes) for active, 0 (no) for inactive

- compound: "CC(C)=CC1C(C(=O)OCc2cccc(Oc3ccccc3)c2)C1(C)C (configuration not stated)"
  class.assignment: "0 (no)"
- compound: "C[C@]12C[C@@H](CO)[C@H](O)C[C@@H]1CC[C@@H]1[C@@H]2CC[C@]2(C)[C@@H](O)CC[C@@H]12"
  class.assignment: "0 (no)"
- compound: "CCOC(=O)[C@@H](C)C[C@H](Cc1ccccc1)NC(=O)c1csc([C@@H](C[C@H](C(C)C)N(C)C(=O)CNC(=O)[C@H]2CCCCN2C)OC(C)=O)n1"
  class.assignment: "0 (no)"
- compound: "NC(CCl)CCl"
  class.assignment: "0 (no)"
- compound: "CCCCCCCC[n+]1ccc2ccccc2c1"
  class.assignment: "0 (no)"
- compound: "COc1ccc(/C=C\\c2cc(OC)c(OC)c(OC)c2)cc1OCC(=O)Nc1nc2ccc(OC(F)(F)F)cc2s1"
  class.assignment: "0 (no)"
- compound: "CCCCCCCCCCCCCC[P+](CCCCCC)(CCCCCC)CCCCCC"
  class.assignment: "1 (yes)"
- compound: "COC(=O)C12CC(NC(=O)c3csc([C@@H](C[C@H](C(C)C)N(C)C(=O)[C@@H](NC(=O)[C@H]4CCCCN4C)C(C)C)OC(C)=O)n3)(C1)C2"
  class.assignment: "0 (no)"
- compound: "COc1ccc(C/C(C)=C(\\c2ccc(OCCN3CCOCC3)cc2)c2ccc(OC(=O)Cc3ccccc3)cc2)cc1"
  class.assignment: "1 (yes)"
- compound: "O=C(O)c1c(Cl)n(Cc2ccc(O)cc2)c2ccc(O)cc12"
  class.assignment: "0 (no)"
- compound: "[Cl][Hg][n]1c(-c2ccco2)nc2ccccc21"
  class.assignment: "0 (no)"
- compound: "CC12CCC=CC1CCC1C2CCC2(C)C(c3ccc(=O)oc3)CCC12O (configuration not stated)"
  class.assignment: "1 (yes)"

---

Test system: SW-620 colon
assay.explanation: NCI-60 one-dose screen, 48 h (100 = growth as untreated, 0 = no growth, -100 = all killed)
assay.setup: 10 µM unless noted
Compounds without any hit were thinned out: in the full panel of roughly 83,000, 20% have a hit.
metric.name: growth (%)

- chemical.string: "COC(=O)[C@@H](C)C[C@H](Cc1ccccc1)NC(=O)c1csc([C@@H](C[C@H](C(C)C)N(C)C(=O)[C@@H](NC(=O)[C@H]2CCCCN2C)C2CCCCC2)OC(C)=O)n1"
  assayed.system: "SW-620 colon"
  metric.name: "growth"
  scale.unit: "%"
  measured: 19.1
- chemical.string: "Cc1cc(C)cc(Nc2nc3c(s2)CC[C@@]2(C)C3=CC[C@@H]3[C@@H]2CC[C@]2(C)C(=O)CC[C@@H]32)c1"
  assayed.system: "SW-620 colon"
  metric.name: "growth"
  scale.unit: "%"
  measured: 37.8
- chemical.string: "CCOC(=O)[C@@H](C)C[C@H](Cc1ccccc1)NC(=O)c1csc([C@@H](C[C@H](C(C)C)N(C)C(=O)[C@H](CCC(C)C)NC(=O)[C@H]2CCCCN2C)OC(C)=O)n1"
  assayed.system: "SW-620 colon"
  metric.name: "growth"
  scale.unit: "%"
  measured: 25.4
- chemical.string: "Cn1cc(-c2csc(-c3cn(CCCCN4CCCCC4)c4ccccc34)n2)c2cccnc21"
  assayed.system: "SW-620 colon"
  metric.name: "growth"
  scale.unit: "%"
  measured: -65.2
- chemical.string: "CCOC(=S)S[C@H]1C[C@@H]2[C@H](CC[C@]3(C)C(=O)CC[C@@H]23)[C@@]2(C)CCC(=O)C=C12"
  assayed.system: "SW-620 colon"
  metric.name: "growth"
  scale.unit: "%"
  measured: 105

---

System: EKVX NSCLC
assay.explanation: NCI-60 one-dose screen, 48 h (100 = growth as untreated, 0 = no growth, -100 = all killed)
assay.setup: 10 µM unless noted
The panel holds about 83,000 compounds, 20% with a hit somewhere; the sample as a whole holds those more often.
Listing of recorded growth by entry.
metric.name: growth (%)

- chemical.string: "COc1ccc(/C=C\\c2cc(OC)c(OC)c(OC)c2)cc1OCC(=O)Nc1nc2ccc(OC(F)(F)F)cc2s1"
  assayed.system: "EKVX NSCLC"
  measured: 77
- chemical.string: "CS(=O)(=O)CCN1CC2CCCC(C2)C1"
  assayed.system: "EKVX NSCLC"
  measured: 102
- chemical.string: "ClC1=C(Cl)C(Cl)(C2(Cl)C(Cl)=C(Cl)C(Cl)=C2Cl)C(Cl)=C1Cl"
  assayed.system: "EKVX NSCLC"
  measured: 5.58
- chemical.string: "COC(=O)[C@@H](NC(=O)c1cn(CCC2CCCCC2)c2ccccc12)C(C)(C)C"
  assayed.system: "EKVX NSCLC"
  measured: 58.6

---

Tested on: U251 CNS
assay.explanation: NCI-60 one-dose screen, 48 h (100 = growth as untreated, 0 = no growth, -100 = all killed)
assay.setup: 10 µM unless noted
Description: Growth inhibition of the U251 human tumor cell line is measured as a screen for anti-cancer activity. Cells are grown in 96 well plates and exposed to the test compound for 48 hours. Compounds are tested at a single concentration, which is 10^-5 M for most compounds. The reported endpoint is percent growth (GI% or GIPRCNT), where numbers from 0 - 100% represent growth inhibition, and numbers from -100% - 0 represent cell death. For example, a value of 40 represents 60% growth inhibition. […]
About 83,000 compounds went through this panel and 20% of them were active in at least one assay; those are over-represented in the sample as a whole.
Documented growth across a set of molecules

- molecule: "CC(C)=CC1C(C(=O)OCc2cccc(Oc3ccccc3)c2)C1(C)C (centres undefined)"
  assayed.system: "U251 CNS"
  growth (%): 98.6
- molecule: "CCOP(=O)(Cc1ccc(C#N)cc1)OCC"
  assayed.system: "U251 CNS"
  growth (%): 95.6
- molecule: "CC[C@@H]1[C@@H](C)O[C@@](O)([C@@H](C)[C@H](O)[C@H](C)[C@H]2OC(=O)/C=C/C=C/[C@H](C)[C@@H]([C@@H](C)[C@@H](O)[C@H](C)[C@@]3(O)C[C@@H](O[C@H]4C[C@@H](O)[C@H](O)C(C)O4)[C@H](CC)[C@@H](C)O3)OC(=O)/C=C/C=C/[C@@H]2C)C[C@H]1O[C@@H]1C[C@@H](O)[C@H](O)C(C)O1 (some centres undefined)"
  assayed.system: "U251 CNS"
  growth (%): -92.8
- molecule: "C[C@]12CCc3sc(-c4cccc(F)c4)nc3C1=CC[C@@H]1[C@@H]2CC[C@]2(C)C(=O)CC[C@@H]12"
  assayed.system: "U251 CNS"
  growth (%): 18.8

---

System: OVCAR-3 ovarian
assay.explanation: NCI-60 one-dose screen, 48 h
assay.setup: 10 µM unless noted
Compounds without any hit were thinned out: in the full panel of roughly 83,000, 20% have a hit. The source made the active and inactive calls. Rule for the calls: active = growth percent below 10; inactive = the rest.
Possible outcomes: active, inactive

- chemical.string: "C=C1C[C@](OC)([C@H](O)C(=O)N[C@@H](OC)[C@@H]2C[C@@H](O)C(C)(C)[C@@H](C[C@@H](COC)OC)O2)O[C@H](C)[C@@H]1C"
  assayed.system: "OVCAR-3 ovarian"
  class.assignment: "active"
- chemical.string: "CC1=C(O)[C@@](C)(CCCCC[C@H](C)CCCCc2ccc(O)cc2)OOC1=O"
  assayed.system: "OVCAR-3 ovarian"
  class.assignment: "inactive"
- chemical.string: "O=P(Oc1ccc(Cl)cc1)(N1CC1)N1CC1"
  assayed.system: "OVCAR-3 ovarian"
  class.assignment: "inactive"
- chemical.string: "C[C@@H]1C[C@@]2(C)[C@@H](CC[C@@H]3[C@@H]2CC[C@]2(C)C(=O)CC[C@@H]32)CC1=O"
  assayed.system: "OVCAR-3 ovarian"
  class.assignment: "inactive"
- chemical.string: "CC1=C(CCCNS(C)(=O)=O)C2=C(C)C3(CC3)[C@@](C)(O)C(=O)C2=C1"
  assayed.system: "OVCAR-3 ovarian"
  class.assignment: "active"

---

System: BT-549 breast
assay.explanation: NCI-60 one-dose screen, 48 h (100 = growth as untreated, 0 = no growth, -100 = all killed)
assay.setup: 10 µM unless noted
Compounds without any hit were thinned out: in the full panel of roughly 83,000, 20% have a hit.

- molecule: "C[C@]12CC[C@@H]3c4ccc(Oc5nc(N6CC6)nc(N6CC6)n5)cc4CC[C@H]3[C@@H]1CCC2=O"
  growth (%): 53.9
- molecule: "O[C@H](CN1CC1)[C@@H](O)CN1CC1"
  growth (%): 81.9
- molecule: "[Au+].[N-]=C=O.c1ccc(CN2[CH-]N(Cc3ccccc3)C(c3ccccc3)=C2c2ccccc2)cc1"
  growth (%): 89.8
- molecule: "CCCOC(=O)N[C@H]1CCc2c(Br)c(OC)c(OC)c(OC)c2-c2ccc(SC)c(=O)cc21"
  growth (%): 2.53
- molecule: "c1ccc(COc2ccc3[nH]cc(CCN(Cc4ccccc4)Cc4ccccc4)c3c2)cc1"
  growth (%): 103
- molecule: "Cn1cc(-c2csc(-c3cn(CCN4CCOCC4)c4ccc(F)cc34)n2)c2cccnc21"
  growth (%): 10.8
- molecule: "CC1=C2[C@@H](CC1)[C@]1(C)O[C@@](C(C)C)(C[C@H]1O)[C@H]2OC(=O)C1CC1c1ccccc1 (stereo not given in full)"
  growth (%): 81.4
- molecule: "Cc1sc2c(c1C)C(c1ccc(Cl)cc1)=N[C@@H](CC(=O)OC(C)(C)C)c1nnc(C)n1-2"
  growth (%): 58.5
- molecule: "Cc1cc(N(CCCl)CCCl)ccc1C=Nc1ccccc1-c1ccccc1"
  growth (%): 83.7
- molecule: "CCOC(=O)[C@@H](C)C[C@H](Cc1ccccc1)NC(=O)c1csc([C@@H](C[C@H](C(C)C)N(C)C(=O)[C@@H](NC(=O)[C@H]2CCCCN2C)C(C)(C)CC)OC(C)=O)n1"
  growth (%): -40.2
- molecule: "CCC(C)(C)[C@H](NC(=O)[C@H]1CCCCN1C)C(=O)N(C)[C@H](C[C@@H](OC(C)=O)c1nc(C(=O)N[C@@H](Cc2ccccc2)C[C@H](C)C(=O)O)cs1)C(C)C"
  growth (%): -34.7
- molecule: "CN1CCC(c2c[nH]c3ccccc23)C1 (stereo not given)"
  growth (%): 110
- molecule: "COC(=O)CC[C@H](Cc1ccccc1)NC(=O)c1csc([C@@H](C[C@H](C(C)C)N(C)C(=O)[C@@H](NC(=O)[C@H]2CCCCN2C)C(C)C)OC(C)=O)n1"
  growth (%): -22.4
- molecule: "CC(=O)O[C@H](C[C@H](C(C)C)N(C)C(=O)[C@@H](NC(=O)[C@H]1CCCCN1C)C(C)C)c1nc(C(=O)N[C@@H](Cc2ccccc2)C[C@H](C)C(=O)O)c(C(C)C)s1"
  growth (%): -23.3
- molecule: "COc1ccc(/C=C\\c2cc(OC)c(OC)c(OC)c2)cc1OCC(=O)Nc1nc2ccc(OC(F)(F)F)cc2s1"
  growth (%): 58.7
